Data provenance is patent US20260242478A1.

The entries below come with measured Phage binding ELISA, Anti-CD28 Fab signal values attached.
System: T1, Anti-CD28 Fab (SEQ ID NOs: 696, 697)
T1 construct: In the phage ELISA the Fab was biotinylated and captured on neutravidin coated plates
T1 sequence (VH, as listed by the source, chain 1 of 2): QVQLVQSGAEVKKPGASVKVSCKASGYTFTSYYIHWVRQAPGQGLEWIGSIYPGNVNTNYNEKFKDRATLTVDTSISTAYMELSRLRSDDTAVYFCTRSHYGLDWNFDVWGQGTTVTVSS
T1 sequence (VL, as listed by the source, chain 2 of 2): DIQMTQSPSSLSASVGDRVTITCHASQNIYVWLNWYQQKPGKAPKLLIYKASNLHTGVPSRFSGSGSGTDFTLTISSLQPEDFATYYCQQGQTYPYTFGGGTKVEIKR
Method Summary: phage ELISA; biotinylated anti-CD28 Fab on neutravidin plates, bound phage detected with anti-M13-HRP
Lab note: jot down the number only; don't add units.

INSERT INTO results (binder, observed_value) VALUES
  ('YCDGHSPIYMSKCL (Tested as clonal phage supernatant) [Phage-710]', 2),
  ('YCAGHLPMYMHKCL (Tested as clonal phage supernatant) [Phage-714]', 1.99),
  ('YCDGHLWEYMDKCL (Tested as clonal phage supernatant) [Phage-719]', 1.97),
  ('YCDGHMPQYMSKCL (Tested as clonal phage supernatant) [Phage-716]', 1.98),
  ('YCEGHLPMYFLKCM (Tested as clonal phage supernatant) [Phage-720]', 1.97);

Given the entry YCVGHLPQYMEKCL (Tested as clonal phage supernatant) [Phage-717] , report its measured Phage binding ELISA, Anti-CD28 Fab signal.
1.98

Given the entry YCDGHLPIYMTQCL (Tested as clonal phage supernatant) [Phage-721] , report its measured Phage binding ELISA, Anti-CD28 Fab signal.
1.97

Given the entry YCEGHLAEYMDKCL (Tested as clonal phage supernatant) [Phage-722] , report its measured Phage binding ELISA, Anti-CD28 Fab signal.
1.96
